Test system: Fusarium solani
Test: Antifungal activity against Fusarium solani IFO 31093 after 48 hrs by broth microdilution method
Format: functional
Conditions: IFO 31093, 48 h
Attribute: MFC
Numbers only here, please. The scale is µg/mL.

testSmiles	recordedMeasurement
C[C@@H](c1ncncc1F)[C@](O)(Cn1cncn1)c1ccc(F)cc1F	8

Consider the record given below.
Reported MFC of C[C@@H]1[C@H](O)[C@@H](C)/C=C/C=C/C=C/C=C/C=C/C=C/C=C/[C@H](O[C@@H]2O[C@H](C)[C@@H](O)[C@H](N)[C@@H]2O)C[C@@H]2O[C@](O)(C[C@@H](O)C[C@@H](O)[C@H](O)CC[C@@H](O)C[C@@H](O)CC(=O)O[C@H]1C)C[C@H](O)[C@H]2C(=O)O : 2
